Read-out: Human Leukocyte Antigen - DR isotype (HLADR), HLA-DRA (gene 3122)
Experiment: BSK_BE3C_HLADR: BioMAP Diversity Plus: BE3C Assay for Human Leukocyte Antigen - DR isotype (HLADR) Biomarker Activity (AID 2283032)
Conditions: primary human bronchial epithelial cells; actives raise or lower the signal
Active and inactive are the calls of the source. Rule for the calls: active = hit-call score of the fitted dose curve at least 0.9, where 1 is the maximum; inactive = score below 0.9.
Outcome codes: true (1) (active), false (0) (inactive)

INSERT INTO results (compound, discrete_label) VALUES
  ('C=CC=CC=CCCCCC', 'true (1)'),
  ('C=CCOCC(O)CCl (stereo not drawn)', 'false (0)'),
  ('c1ccc2c(c1)ccc1ncccc12', 'false (0)'),
  ('C#CC1(O)CC[C@H]2[C@@H]3CCC4=CCCC[C@@H]4[C@H]3CC[C@@]21C (stereo partly drawn)', 'true (1)'),
  ('Nc1ccc(N)c(Cl)c1', 'false (0)'),
  ('CCCCCCCCc1ccc(Nc2ccc(CCCCCCCC)cc2)cc1', 'false (0)'),
  ('CCCCC(CC)COC(=O)c1ccccc1O (stereo not drawn)', 'false (0)'),
  ('C=CCOc1c(Br)cc(Br)cc1Br', 'true (1)');

Reference for the values: PubChem BioAssay (EPA / NIEHS)
